- Tgt: insulin subtype B receptor (IR-B) (Homo sapiens)
- Assay Procedure: Insulin subtype B receptor phosphorylation, receptor transfected HEK293 cells
- Assay type: cell-based
- Design: expressed in transfected cells; host or cells: HEK293
- Particulars: read-out: Phosphorylation at Insulin Receptor Subtype B (IC50); Table 16B
pIC50: −log10 of the molar value.
Metric: pIC50

Substance: DP20 random: CTP linker sequence randomized; linking peptide PPRPPQSASPPDLSPLSGTPSRPSLS; SEQ ID NO: 69 (listed as Homo sapiens)
Result Number: 8.61

----------
- Tgt: IR-A (Homo sapiens, UniProt P06213)
- Assay Procedure: In vitro activity of pegylated analogs relative to native insulin at IR-A
Bridges are numbered along the chain shown (N, C = ends). Where no end group is shown, it is not given here.
Each entry below lists one item and its recorded % Insulin Activity IR-A value.

Substance: B^1(H5, H10, Y16, L17)25-C^1-A^1 (H8, N18, N21) (GPEHLCGAHLVDALYLVCGDRGFYGYGSSSRRAPQTGIVDECCHRSCDLRRLENYCN) [MIU-35]
Units Label: %
% Insulin Activity IR-A: 61.4

Substance: B^1(H5,Y16,L17, K22)25-C^1(K8)-A^1(N18,21) (GPEHLCGAELVDALYLVCGDKGFYGYGSSSRKAPQTGIVDECCFRSCDLRRLENYCN) [MIU-68, two 10K PEG chains, at the N-terminus and at amino acid B22]
Units Label: %
% Insulin Activity IR-A: 0.4

Substance: MIU-58: dimer of two single chain analogs B1(H5,Y16,L17)25-C1-A1(N18,21) linked head to head via 20 kDa PEG (GPEHLCGAELVDALYLVCGDRGFYGYGSSSRRAPQTGIVDECCFRSCDLRRLENYCN; disulfide 18-56, 42-47, 6-43; also: dimer of two chains joined head to head (B1 N-termini) via 20 kDa PEG)
Units Label: %
% Insulin Activity IR-A: 19.7

Substance: B^1(H5,Y16,L17)25-C^1-A^1(N18,21) (GPEHLCGAELVDALYLVCGDRGFYGYGSSSRRAPQTGIVDECCFRSCDLRRLENYCN) [MIU-57, single chain analog with 20 kDa PEG linked to the N-terminus of the B chain]
Units Label: %
% Insulin Activity IR-A: 3.1

Substance: B^1(H5,Y16,L17)25-C^1(K8)-A^1(N18,21) (GPEHLCGAELVDALYLVCGDRGFYGYGSSSRKAPQTGIVDECCFRSCDLRRLENYCN) [MIU-67, two 10K PEG chains, at the N-terminus and at position C8 of the linking moiety]
Units Label: %
% Insulin Activity IR-A: 0.2

Substance: B^1(H5,Y16,L17)25-C^1(K8)-A^1(K14, N18,21) (GPEHLCGAELVDALYLVCGDRGFYGYGSSSRKAPQTGIVDECCFRSCDLKRLENYCN) [MIU-69, two 10K PEG chains, at the N-terminus and at amino acid A14]
Units Label: %
% Insulin Activity IR-A: 1.0
